Form field: pIC50 (one value per entry).
# Target entity: Aurora B (Homo sapiens, UniProt Q96GD4)
# Sequence (Q96GD4 whole entry): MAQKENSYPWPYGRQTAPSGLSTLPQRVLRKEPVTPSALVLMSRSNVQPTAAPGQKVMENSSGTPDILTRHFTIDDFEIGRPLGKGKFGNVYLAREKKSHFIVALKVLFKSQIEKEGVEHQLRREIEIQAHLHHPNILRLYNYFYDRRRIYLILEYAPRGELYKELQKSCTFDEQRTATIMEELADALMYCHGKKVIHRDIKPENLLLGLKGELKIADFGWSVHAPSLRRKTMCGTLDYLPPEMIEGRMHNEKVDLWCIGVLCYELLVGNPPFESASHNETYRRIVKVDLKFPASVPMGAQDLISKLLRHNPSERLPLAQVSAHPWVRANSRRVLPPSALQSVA
# Method description: Aurora-B microfluidic kinase assay
# Condition parameters: biochemical; mean of two determinations or mean ±SD for n > 2
# Method: As part of our medicinal chemistry programme to discover selective inhibitors of Aurora-A,[12] we introduced the 1-benzyl-1H-pyrazol-4-yl moiety at C7 of the imidazo[4,5-b]pyridine scaffold to provide 7a (Table 1). […] [17] Aurora-A and Aurora-B IC50 values were determined by using a microfluidic assay which monitors the separation of a phosphorylated product from its substrate, as described in Ref. [12].
pIC50: −log10 of the molar value.
Measured property: pIC50

Molecule: Cc1cc(Cn2cc(-c3c(Cl)cnc4[nH]c(-c5cn(C)nc5C)nc34)cn2)no1 [Compound 14d]
Measured property: pIC50
Comparison operator: =
Assay result: 7.12

Molecule: Cc1nn(C)cc1-c1nc2c(-c3cnn(Cc4cccc(C(=O)N5CCN(C)CC5)c4)c3)c(Cl)cnc2[nH]1 [Compound 14b]
Measured property: pIC50
Comparison operator: =
Assay result: 6.63

Molecule: Cc1nn(C)cc1-c1nc2c(-c3cnn(-c4ccc(F)cc4)c3)c(Cl)cnc2[nH]1 [Compound 7e]
Measured property: pIC50
Comparison operator: <
Assay result: 5.00

Molecule: Cc1nn(C)cc1-c1nc2c(-c3cnn(Cc4ccccc4)c3)c(Cl)cnc2[nH]1 [Compound 7a]
Measured property: pIC50
Comparison operator: =
Assay result: 6.34

Molecule: Cc1nn(C)cc1-c1nc2c(-c3cnn(Cc4ccccc4C(=O)N4CCN(C)CC4)c3)c(Cl)cnc2[nH]1 [Compound 14c]
Measured property: pIC50
Comparison operator: =
Assay result: 6.45

Molecule: Cc1nn(C)cc1-c1nc2c(-c3cnn(Cc4cccc(C(=O)N(C)C)c4)c3)c(Cl)cnc2[nH]1 [Compound 14a]
Measured property: pIC50
Comparison operator: =
Assay result: 6.53

----------
# Target entity: Aurora B (Homo sapiens, UniProt Q96GD4)
# Method description: Histone H3 phosphorylation at S10 in HeLa cells
# Format: cell-based
# Condition parameters: read-out: p-HH3 IC50 (histone H3 phosphorylation at S10)
pIC50: −log10 of the molar value.

Sample smiles: Cc1nn(C)cc1-c1nc2c(-c3cnn(Cc4ccccc4)c3)c(Cl)cnc2[nH]1
Target entity: Aurora B (Homo sapiens, UniProt Q96GD4)
pIC50: 6.65

----------
# Target entity: UniProt:O14965
# Sequence (O14965 whole entry): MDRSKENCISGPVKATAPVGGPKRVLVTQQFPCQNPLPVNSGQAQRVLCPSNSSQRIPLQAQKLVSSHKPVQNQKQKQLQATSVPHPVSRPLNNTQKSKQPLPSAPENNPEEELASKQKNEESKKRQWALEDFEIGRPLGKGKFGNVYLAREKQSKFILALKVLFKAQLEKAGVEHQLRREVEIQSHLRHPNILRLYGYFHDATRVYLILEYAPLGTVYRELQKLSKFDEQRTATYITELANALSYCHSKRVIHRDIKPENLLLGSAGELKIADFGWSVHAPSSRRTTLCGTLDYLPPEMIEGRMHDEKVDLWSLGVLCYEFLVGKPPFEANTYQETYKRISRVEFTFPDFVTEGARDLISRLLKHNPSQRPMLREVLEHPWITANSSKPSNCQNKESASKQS
# Method description: Aurora-A autophosphorylation at T288 in HeLa cells
# Format: cell-based
# Condition parameters: read-out: p-T288 IC50 (Aurora-A autophosphorylation)

Sample smiles: Cc1nn(C)cc1-c1nc2c(-c3cnn(Cc4ccccc4)c3)c(Cl)cnc2[nH]1
IC50 / nM: 87

----------
Form field: HLM % met/30 min (one value per entry).
# Method description: Human liver microsomal stability
# Assay type: in vitro ADME
# Condition parameters: percentage of compound metabolised after a 30 min incubation, human liver microsomes

Compound: Cc1cc(Cn2cc(-c3c(Cl)cnc4[nH]c(-c5cn(C)nc5C)nc34)cn2)no1 [Compound 14d]
Measurement unit: %
HLM % met/30 min: 37

Compound: Cc1nn(C)cc1-c1nc2c(-c3cnn(-c4ccc(F)cc4)c3)c(Cl)cnc2[nH]1 [Compound 7e]
Measurement unit: %
HLM % met/30 min: 20

Compound: Cc1nn(C)cc1-c1nc2c(-c3cnn(Cc4cccc(C(=O)N5CCN(C)CC5)c4)c3)c(Cl)cnc2[nH]1 [Compound 14b]
Measurement unit: %
HLM % met/30 min: 87

Compound: Cc1nn(C)cc1-c1nc2c(-c3cnn(Cc4ccccc4C(=O)N4CCN(C)CC4)c3)c(Cl)cnc2[nH]1 [Compound 14c]
Measurement unit: %
HLM % met/30 min: 82

Compound: Cc1nn(C)cc1-c1nc2c(-c3cnn(Cc4ccccc4)c3)c(Cl)cnc2[nH]1 [Compound 7a]
Measurement unit: %
HLM % met/30 min: 43

----------
# Method description: Mouse liver microsomal stability
# Format: in vitro ADME
# Condition parameters: percentage of compound metabolised after a 30 min incubation, mouse liver microsomes
Measured property: MLM % met/30 min (%)

Compound: Cc1nn(C)cc1-c1nc2c(-c3cnn(Cc4ccccc4C(=O)N4CCN(C)CC4)c3)c(Cl)cnc2[nH]1 [Compound 14c]
Measured property: MLM % met/30 min
Assay result: 98
--
Compound: Cc1nn(C)cc1-c1nc2c(-c3cnn(Cc4cccc(C(=O)N5CCN(C)CC5)c4)c3)c(Cl)cnc2[nH]1 [Compound 14b]
Measured property: MLM % met/30 min
Assay result: 97
--
Compound: Cc1nn(C)cc1-c1nc2c(-c3cnn(Cc4ccccc4)c3)c(Cl)cnc2[nH]1
Measured property: MLM % met/30 min
Assay result: 40
--
Compound: Cc1cc(Cn2cc(-c3c(Cl)cnc4[nH]c(-c5cn(C)nc5C)nc34)cn2)no1 [Compound 14d]
Measured property: MLM % met/30 min
Assay result: 35
--
Compound: Cc1nn(C)cc1-c1nc2c(-c3cnn(-c4ccc(F)cc4)c3)c(Cl)cnc2[nH]1
Measured property: MLM % met/30 min
Assay result: 31
